Tested on: Escherichia coli
Assay: Bactericidal activity against Escherichia coli DH10beta harboring pHuLUC3 after 18 to 20 hrs by microdilution method
Type: functional
MEASURED_PARAMETER: MBC

CC(=O)N(/N=N/c1ccc([N+](=O)[O-])cc1C(F)(F)F)c1ccc([N+](=O)[O-])cc1C(F)(F)F    > 128 µg/mL
O=C(c1ccccc1)N(/N=N/c1ccc([N+](=O)[O-])cc1C(F)(F)F)c1ccc([N+](=O)[O-])cc1C(F)(F)F    > 128 µg/mL
CC(=O)N(/N=N/c1ccc([N+](=O)[O-])cc1Cl)c1ccc([N+](=O)[O-])cc1Cl    > 128 µg/mL

* * *

System: Escherichia coli
Assay: Antibacterial activity against Escherichia coli DH10beta harboring pHuLUC3 after 18 to 20 hrs by microdilution method
Type: functional
Catalogue of compounds with associated MIC
MEASURED_PARAMETER: MIC

Clc1ccc(Cl)c(/N=N/Nc2cc(Cl)ccc2Cl)c1    > 128 mg/L
O=C(c1ccccc1)N(/N=N/c1ccc([N+](=O)[O-])cc1C(F)(F)F)c1ccc([N+](=O)[O-])cc1C(F)(F)F    ≥ 128 mg/L
O=C(c1ccncc1)N(/N=N/c1ccc([N+](=O)[O-])cc1F)c1ccc([N+](=O)[O-])cc1F    > 128 mg/L
Ic1ccccc1/N=N/Nc1ccccc1I    > 128 mg/L
Fc1ccc(/N=N/Nc2ccc(F)cc2C(F)(F)F)c(C(F)(F)F)c1    > 128 mg/L
